Target: menin/MLL (terbium chelate-labeled menin, FITC-MBM1 peptide) (Homo sapiens (Human))
Sequence (O00255 other isoform, or with tags, fused parts or gaps): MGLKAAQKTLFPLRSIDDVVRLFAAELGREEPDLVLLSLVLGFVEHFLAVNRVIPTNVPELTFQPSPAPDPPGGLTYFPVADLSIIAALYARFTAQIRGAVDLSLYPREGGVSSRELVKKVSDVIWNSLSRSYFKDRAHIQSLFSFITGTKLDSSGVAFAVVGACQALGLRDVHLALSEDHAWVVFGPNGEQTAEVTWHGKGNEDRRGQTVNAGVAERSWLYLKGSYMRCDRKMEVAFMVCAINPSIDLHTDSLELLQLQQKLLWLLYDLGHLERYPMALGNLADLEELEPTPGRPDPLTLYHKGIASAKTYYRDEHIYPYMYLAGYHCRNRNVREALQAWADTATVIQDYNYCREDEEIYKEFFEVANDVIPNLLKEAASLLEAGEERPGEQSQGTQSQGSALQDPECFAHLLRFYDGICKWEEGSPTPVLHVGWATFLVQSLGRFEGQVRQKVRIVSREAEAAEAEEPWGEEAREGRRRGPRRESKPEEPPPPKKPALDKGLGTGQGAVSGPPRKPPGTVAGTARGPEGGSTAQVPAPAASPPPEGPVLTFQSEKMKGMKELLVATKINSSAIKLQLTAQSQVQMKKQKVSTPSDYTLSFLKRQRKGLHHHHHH
Assay: Menin/MLL homogenous time-resolved fluorescence (HTRF) assay;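 further: IC50 from percent inhibition of HTRF signal, normalized between wells without competitor and wells with a saturating competitor that displaces FITC-MBM1 from His-tagged menin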
Type: binding
Conditions: HTRF-30 min incubation IC50, 30 min incubation
Where a name gives a salt, the structure may show the parent alone.
Measured Property: pIC50
Here pIC50 is given on a logarithmic scale as minus log10 of the concentration in mol/L.

CCN(C(=O)c1cc(F)ccc1Oc1nncnc1N1CCC2(C1)CN([C@H](CCNCCC(N)=O)C(C)C)C2)C(C)C (single isomer, unassigned) [Compound 278]	10.17
CCN(C(=O)c1cc(F)ccc1Oc1nncnc1N1CCC2(C1)CN([C@H](CCCN(C)CCCC(=O)N(C)C)C(C)C)C2)C(C)C [Compound 152, fumarate]	9.72
CCN(C(=O)c1cc(F)ccc1Oc1nncnc1N1CCC2(C1)CN([C@@H](C[C@H](C)CN(C)CCOC)C(C)C)C2)C(C)C (single isomer, unassigned) [Compound 243]	8.13

Could you now consider this next molecule?
[in] What value of pIC50 has been reported for the following molecule? CCN(C(=O)c1cc(F)ccc1Oc1nncnc1N1CCC2(C1)CN([C@H](CCC(C)(C)NC)C(C)C)C2)C(C)C (single isomer, unassigned) [Compound 35, hydrochloride]
[out] 9.82
